Taken from PubChem BioAssay AID504408.

assay: HSF-1 activators, primary screen, NIH3T3-HGL cells, MG132 stress, luminescence, single point (AID 504408); conditions: NIH3T3-HGL HSF-1 luciferase reporter, MG132, 8 h; at 9 µM; 100% = twice DMSO control signal;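 further: 0% = median of the neutral control wells and 100% = twice that signal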
In all, about 300,000 compounds went through this assay and about 5,200 (1.7%) were called active.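 How the source made its calls: active means mean replicate activation of at least 50% with a set share of replicates each reaching 50%; inconclusive means only one of those two conditions met; inactive means mean below 50% and too few replicates reaching it.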 This is one part of a sample in which actives are shown more often than they occur.
Pick one: 1.0 = active, 0.0 = inactive

# input # lookup: test call for CCCCCN1CC(O)=C(c2nc(-c3ccc(Cl)cc3)cs2)C1=N
# output 0.0

# input # lookup: test call for CN(C)c1ccnc(Oc2ccc(F)cc2)c1C#N
# output 0.0

# input # lookup: test call for CCN(CC)S(=O)(=O)c1ccc(-c2cn3ccc(C)cc3n2)cc1
# output 1.0

# input # lookup: test call for Cn1cc([N+](=O)[O-])c(C(=O)Nc2ccc3c(c2)OCCO3)n1
# output 0.0

# input # lookup: test call for O=C(NNC(=O)c1cc2c(s1)CCCC2)c1ccccc1
# output 0.0

# input # lookup: test call for CCCCn1c(N)c(N(CCOC)C(=O)c2cccc(S(=O)(=O)N(C)c3ccccc3)c2)c(=O)[nH]c1=O
# output 0.0

----------
experiment: HSF-1 activators, primary screen, NIH3T3-HGL cells, MG132 stress, luminescence, single point (AID 504408); settings: NIH3T3-HGL HSF-1 luciferase reporter, MG132, 8 h; at 9 µM; 100% = twice DMSO control signal;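 further: 0% = median of the neutral control wells and 100% = twice that signal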
Out of some 300,000 compounds screened, about 5,200 (1.7%) were called active.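 How the source made its calls: active means mean replicate activation of at least 50% with a set share of replicates each reaching 50%; inconclusive means only one of those two conditions met; inactive means mean below 50% and too few replicates reaching it.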 The full list was thinned out, with actives kept by preference.
Pick one: 1 (yes) (active), 0 (no) (inactive)

# input # lookup: test call for COc1ccc2c(c1OC)C(=O)OC2Nc1nc(-c2ccccc2)cs1 (stereo not drawn)
# output 1 (yes)

# input # lookup: test call for COc1cccc(NC(=S)NCc2ccccn2)c1
# output 0 (no)

# input # lookup: test call for COc1cc(NC(=O)c2cc([N+](=O)[O-])ccc2Br)ccc1NC(=O)c1ccco1
# output 1 (yes)

----------
# activation per record follows
assay: HSF-1 activators, primary screen, NIH3T3-HGL cells, MG132 stress, luminescence, single point (AID 504408); details: NIH3T3-HGL HSF-1 luciferase reporter, MG132, 8 h; at 9 µM; stronger effect = higher value; 100% = twice DMSO control signal;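 further: 0% = median of the neutral control wells and 100% = twice that signal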
In all, about 300,000 compounds went through this assay and about 5,200 (1.7%) were called active. Shown is part of a subset that was picked to be rich in actives.
Could you give me the number in %? Just the number is fine.

For orientation, consider the following solved cases.
>  <Molecule>
CC(=O)N1CCN(C(=O)c2cc(-c3ccc(C)o3)nc3ccccc23)CC1

>  <Reading unit>
%

>  <Observed result>
-3

$$$$
>  <Molecule>
O=C(Nc1ccc(F)c([N+](=O)[O-])c1)C1CCCO1 (configuration not stated)

>  <Reading unit>
%

>  <Observed result>
9.04

$$$$
>  <Molecule>
COC(=O)N/N=C/c1c[n+]([O-])c2ccccc2[n+]1[O-]

>  <Reading unit>
%

>  <Observed result>
0.846

$$$$
>  <Molecule>
Cc1cc([N+](=O)[O-])ccc1NC(=O)C1CCCO1 (configuration not stated)

>  <Reading unit>
%

>  <Observed result>
0.502

$$$$
>  <Molecule>
Cc1ccc(C)c(C(C)NC(=O)C2CCCO2)c1 (configuration not stated)

>  <Reading unit>
%

>  <Observed result>
2.29

$$$$

# input Report activation for Cc1cc(C)c2nc(NC(=O)C3CCCO3)sc2c1 (configuration not stated)
# output 61.5

# input Report activation for O=C(Nc1ccccc1)Nc1ccccc1C(=O)NCc1ccco1
# output 25.4

# input Report activation for CC(=NCc1ccco1)c1c(C(F)(F)F)[nH]n(-c2nc3ccccc3s2)c1=O
# output -45.7

# input Report activation for CCOc1cc(C(C(=O)NCC2CCCO2)N(C(=O)Cn2nnc3ccccc32)c2cccc(OC)c2)ccc1O (configuration not stated)
# output -1.11

# input Report activation for Cn1c(SCC(=O)c2ccccc2)ncc(C(=O)Nc2ccc(F)cc2)c1=O
# output 9.37

# input Report activation for COc1ccc(Cl)cc1NC(=O)CCN1CCOCC1
# output -5.06
